Recorded post-emergence efficacy MATIN by entry
Test system: Matricaria inodora
Assay: Post-emergence herbicidal effect
Format: in vivo
Conditions: 80 g/ha, assessed visually after about 3 weeks vs untreated controls

Compound | Units text | post-emergence efficacy MATIN
O=S1(=O)CCCc2nc(N[C@@H]3CCCc4sccc43)ncc21 | % | 100
Cc1cc2c(s1)CCCC2Nc1ncc(C#N)c(N)n1 (centres unmarked) [compound 282] | % | 90
CC(=O)c1cnc(NC2CCCc3sc(C)cc32)nc1N (racemic) [compound 150] | % | 80
CC(=NO)c1cnc(NC2CCCc3sc(C)cc32)nc1N (racemic) [compound 341] | % | 60
Cc1cc2c(s1)CCC[C@H]2Nc1ncc(I)c(N)n1 | % | 60

Attribution: patent US10251395B2
